Give measured cytotoxicity at 10 µM for each item. Keep answers brief.
protocolSummary: Toxicity liver stage against HepG2, at 10uM
Type: cell-based
Set-up: test concentration 10 uM, cell line HepG2-A16-CD81EGFP
testContext: human, HepG2-A16-CD81EGFP cells; read-out: INHIBITION
Answers are plain numbers, in %.

Consider the worked cases shown below.
1) O=C(NCCCOCC1CCCO1)c1cccnc1N1CCOCC1 (configuration not stated)    3.68
2) CCc1nc2n(n1)CC(NCC(=O)Nc1cc(C)nn1C)CC2 (configuration not stated)    -10.7
3) Cc1nc(CN2CCCC(NCc3cccc4ccccc34)C2)no1 (configuration not stated)    -0.819
4) Cc1cc(C(=O)NC2CCN(c3nnc(C)c(C)c3C#N)CC2)no1    -2.12
5) Cc1ccc(C(=O)N2Cc3c(CN4CCCCC4)nn(C)c3C2)cc1F    -4.15

Lab note: each compound below needs its cytotoxicity at 10 µM filled in.
1. Cc1ccccc1N1CCN(c2nc(N(C)C)nc3c2CCNC3)CC1
2. O=C(NCC1CCCCC1)N1C[C@@H]2C[C@H](C(=O)N3CCCC3)[C@H](C1)O2
3. Cn1ccnc1C(NCc1ccc(Br)cc1)c1ccccc1 (configuration not stated)
4. c1cnc2[nH]c(C3CCCC3)c(CN3CCCCC3)c2c1
5. Cn1nc(Cn2cccc2)c2c1CN(Cc1ccsc1)C2

Marked response:
8.97
-2.48
-6.39
-26.9
-133

Answer for every listed entry: what is its cytotoxicity at 10 µM? The entries follow.
1. O=c1[nH]c2ncccc2n1C1CCCC1
2. CC(C)(C)n1cc(C(=O)N2CCN(Cc3ccccc3F)CC2)cn1

Marked response:
10.6
10.6

Reference for the values: ChEMBL document CHEMBL4513216
